Exercise: state measured koff for each of the binders provided.
- experimentalSystem: recombinant purified hTau-P301L (human) (UniProt P10636)
- Sequence (P10636 other isoform, or with tags, fused parts or gaps P301L P301L): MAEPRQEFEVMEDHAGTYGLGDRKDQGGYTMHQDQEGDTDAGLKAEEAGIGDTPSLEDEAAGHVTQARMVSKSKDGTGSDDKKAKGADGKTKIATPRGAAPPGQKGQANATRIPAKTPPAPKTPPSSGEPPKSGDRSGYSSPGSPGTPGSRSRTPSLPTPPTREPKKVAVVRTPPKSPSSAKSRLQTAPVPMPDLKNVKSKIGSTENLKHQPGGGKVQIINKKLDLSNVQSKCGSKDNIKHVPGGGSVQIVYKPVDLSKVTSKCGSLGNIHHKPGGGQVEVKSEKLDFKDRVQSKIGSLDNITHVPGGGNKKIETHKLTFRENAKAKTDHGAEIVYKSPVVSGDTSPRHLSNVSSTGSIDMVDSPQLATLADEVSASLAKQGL
- procedureText: SPR (Biacore T200), antibody held by a capture antibody on a CM5 chip, hTau-P301L as analyte
Numeric answer only, unit s⁻¹ assumed.

Could you tell me which koff is on file for humanized 16B5, version H1L4 (antibody, V domains shown) VH: QVQLVQSGSELKKPGASVKVSCKASGYPFTYHGMDWVRQAPGQGLEWMGWINTYSGVPTYADDFKGRFVFSLDTSVSTAYLQISSLKAEDTAVYFCARRRDFTMDFWGQGTTVTVSS VL: NIVLTQSPSSLAVSLGERATINCKSSQSLLNSRTRKNYLAWFQQKPGQSPKLLIYWASTRESGVPDRFSGSGSGTDFTLTISSLQAEDVAVYYCKQSYTLRTFGGGTKVEIKR ?
0.000137

Now the same for humanized 16B5, version H1L2 (antibody, V domains shown) VH: QVQLVQSGSELKKPGASVKVSCKASGYPFTYHGMDWVRQAPGQGLEWMGWINTYSGVPTYADDFKGRFVFSLDTSVSTAYLQISSLKAEDTAVYFCARRRDFTMDFWGQGTTVTVSS VL: NIVLTQSPDSLAVSLGERATINCKSSQSLLNSRTRKNYLAWFQQKPGQSPKLLIYWASTRESGVPDRFSGSGSGTDFTLTISSLQAEDVAVYYCKQSYTLRTFGGGTKVEIKR
0.000131

For humanized 16B5, version H2L4 (antibody, V domains shown) VH: EVQLVQSGSELKKPGASVKVSCKASGYPFTYHGMDWVRQAPGQGLEWMGWINTYSGVPTYADDFKGRFVFSLDTSVSTAYLQISSLKAEDTAVYFCARRRDFTMDFWGQGTTVTVSS VL: NIVLTQSPSSLAVSLGERATINCKSSQSLLNSRTRKNYLAWFQQKPGQSPKLLIYWASTRESGVPDRFSGSGSGTDFTLTISSLQAEDVAVYYCKQSYTLRTFGGGTKVEIKR then?
0.000171

Repeat with humanized 16B5, version H2L2 (antibody, V domains shown) VH: EVQLVQSGSELKKPGASVKVSCKASGYPFTYHGMDWVRQAPGQGLEWMGWINTYSGVPTYADDFKGRFVFSLDTSVSTAYLQISSLKAEDTAVYFCARRRDFTMDFWGQGTTVTVSS VL: NIVLTQSPDSLAVSLGERATINCKSSQSLLNSRTRKNYLAWFQQKPGQSPKLLIYWASTRESGVPDRFSGSGSGTDFTLTISSLQAEDVAVYYCKQSYTLRTFGGGTKVEIKR
0.000138
